Listed compounds paired with reported IC50
test system: BJ; test: Cytotoxicity against human BJ cells assessed as reduction in cell viability measured after 72 hrs by MTS assay; format: cell-based

given-smiles	experimental-target	IC50
C=C(/C=C/c1ccccc1C)[C@@H]1CC[C@]2(C(=O)O)CC[C@]3(C)[C@H](CC[C@@H]4[C@@]5(C)CC[C@H](O)C(C)(C)[C@@H]5CC[C@]43C)[C@@H]12	BJ	33 µM
C=C(/C=C/c1ccc(Br)cc1)[C@@H]1CC[C@]2(C(=O)O)CC[C@]3(C)[C@H](CC[C@@H]4[C@@]5(C)CC[C@H](O)C(C)(C)[C@@H]5CC[C@]43C)[C@@H]12	BJ	> 50 µM
C=C(/C=C/c1ccccc1[N+](=O)[O-])[C@@H]1CC[C@]2(C(=O)O)CC[C@]3(C)[C@H](CC[C@@H]4[C@@]5(C)CC[C@H](O)C(C)(C)[C@@H]5CC[C@]43C)[C@@H]12	BJ	> 50 µM
C=C(/C=C/c1ccccc1C#N)[C@@H]1CC[C@]2(C(=O)O)CC[C@]3(C)[C@H](CC[C@@H]4[C@@]5(C)CC[C@H](O)C(C)(C)[C@@H]5CC[C@]43C)[C@@H]12	BJ	> 50 µM
C=C(/C=C/c1ccccc1Cl)[C@@H]1CC[C@]2(C(=O)O)CC[C@]3(C)[C@H](CC[C@@H]4[C@@]5(C)CC[C@H](O)C(C)(C)[C@@H]5CC[C@]43C)[C@@H]12	BJ	42.3 µM
C=C(/C=C/c1cccc(F)c1)[C@@H]1CC[C@]2(C(=O)O)CC[C@]3(C)[C@H](CC[C@@H]4[C@@]5(C)CC[C@H](O)C(C)(C)[C@@H]5CC[C@]43C)[C@@H]12	BJ	41.5 µM
C=CC(=C)[C@@H]1CC[C@]2(C(=O)O)CC[C@]3(C)[C@H](CC[C@@H]4[C@@]5(C)CC[C@H](O)C(C)(C)[C@@H]5CC[C@]43C)[C@@H]12	BJ	44.6 µM
C=C(/C=C/c1c(F)c(F)c(F)c(F)c1F)[C@@H]1CC[C@]2(C(=O)O)CC[C@]3(C)[C@H](CC[C@@H]4[C@@]5(C)CC[C@H](O)C(C)(C)[C@@H]5CC[C@]43C)[C@@H]12	BJ	> 50 µM
C=C(/C=C/c1ccc(I)cc1)[C@@H]1CC[C@]2(C(=O)O)CC[C@]3(C)[C@H](CC[C@@H]4[C@@]5(C)CC[C@H](O)C(C)(C)[C@@H]5CC[C@]43C)[C@@H]12	BJ	> 50 µM
C=C(/C=C/c1ccc(C(=O)O)cc1)[C@@H]1CC[C@]2(C(=O)O)CC[C@]3(C)[C@H](CC[C@@H]4[C@@]5(C)CC[C@H](O)C(C)(C)[C@@H]5CC[C@]43C)[C@@H]12	BJ	> 50 µM
C=C(/C=C/c1ccncc1)[C@@H]1CC[C@]2(C(=O)O)CC[C@]3(C)[C@H](CC[C@@H]4[C@@]5(C)CC[C@H](O)C(C)(C)[C@@H]5CC[C@]43C)[C@@H]12	BJ	> 50 µM
C=C(/C=C/c1ccccc1)[C@@H]1CC[C@]2(C(=O)O)CC[C@]3(C)[C@H](CC[C@@H]4[C@@]5(C)CC[C@H](O)C(C)(C)[C@@H]5CC[C@]43C)[C@@H]12	BJ	> 50 µM
C=C(/C=C/c1ccccc1I)[C@@H]1CC[C@]2(C(=O)O)CC[C@]3(C)[C@H](CC[C@@H]4[C@@]5(C)CC[C@H](O)C(C)(C)[C@@H]5CC[C@]43C)[C@@H]12	BJ	> 50 µM
C=C(/C=C/c1cccc(C)c1)[C@@H]1CC[C@]2(C(=O)O)CC[C@]3(C)[C@H](CC[C@@H]4[C@@]5(C)CC[C@H](O)C(C)(C)[C@@H]5CC[C@]43C)[C@@H]12	BJ	> 50 µM
C=C(/C=C/c1cccc(OC)c1)[C@@H]1CC[C@]2(C(=O)O)CC[C@]3(C)[C@H](CC[C@@H]4[C@@]5(C)CC[C@H](O)C(C)(C)[C@@H]5CC[C@]43C)[C@@H]12	BJ	> 50 µM

---

Listed molecules paired with reported pIC50
system: BJ; assay: Cytotoxicity against human BJ cells assessed as reduction in cell viability measured after 72 hrs by MTS assay; assay type: cell-based
pIC50: −log10 of the molar value.

given-smiles	pIC50
C=C(/C=C/c1ccc(Cl)cc1)[C@@H]1CC[C@]2(C(=O)O)CC[C@]3(C)[C@H](CC[C@@H]4[C@@]5(C)CC[C@H](O)C(C)(C)[C@@H]5CC[C@]43C)[C@@H]12	< 4.30
C=C(/C=C/c1cccc(Br)c1)[C@@H]1CC[C@]2(C(=O)O)CC[C@]3(C)[C@H](CC[C@@H]4[C@@]5(C)CC[C@H](O)C(C)(C)[C@@H]5CC[C@]43C)[C@@H]12	< 4.30
C=C(/C=C/c1ccc(C(C)(C)C)cc1)[C@@H]1CC[C@]2(C(=O)O)CC[C@]3(C)[C@H](CC[C@@H]4[C@@]5(C)CC[C@H](O)C(C)(C)[C@@H]5CC[C@]43C)[C@@H]12	< 4.30
